target desc: T1, human CD4 on the surface of SKW3 cells or human PBMCs (human, UniProt P01730 26-458)
T1 construct: whole, on cells; SKW3 CD4 knockout cells served as the negative cell line; also called hCD4; SKW3 WT
protocol text: FACS primary screen, non-clonal hybridoma supernatant, SKW3 vs SKW3 CD4 KO cells, anti-human kappa FITC

binder: 75110_02E08A (antibody, V domains shown, Tested here as non-clonal hybridoma supernatant from AlivaMab Mouse Kappa mice (detected with anti-mouse Fc and anti-human kappa)) VH: QVQLQESGPGLVKPSETLSLTCTVSGGSISTYYWTWIRQPAGKGLEWIGRVYTSGDTNYNPSLKSRVAMSLDTSKNQFSLKLSSVTAADTAVYYCARDSGALYSWNYGDAFDIWGQGTMVTVSS VL: DIQMTQSPSAMSASVGDRVTITCRASQDISNYLAWFQQKPGKVPKRLIYAASSLQSGVPSRFSGSGSGTEFTLTISSLQPEDFATYYCLQHNSYPRTFGQGTKVEIK
display unit: ratio
SKW3 WT vs KO anti-hKappa-FITC: 3.1

binder: 75110_01A06A (antibody, V domains shown, Tested here as non-clonal hybridoma supernatant from AlivaMab Mouse Kappa mice (detected with anti-mouse Fc and anti-human kappa)) VH: EVQLVESGGGLVQPGGSLRLSCAASGFTFSSYWMSWVRQAPGKGLEWVANINEDGNEKYYVDSVKGRLTISRDNAKNSLYLQMNSLRAEDTAVYFCAREGGQWLSLDYWGQGALVTVSS VL: DIQMTQSPSSVSASVGDRVSITCRASQGISSWLAWYQQKPGKAPKILIYGASSLQSGVPSRFSGSGSGTDFTLTISSLQPEDFATYYCQQANSFPWTFGQGTKVEIK
display unit: ratio
SKW3 WT vs KO anti-hKappa-FITC: 2.4

binder: 75110_03L12A (antibody, V domains shown, Tested here as non-clonal hybridoma supernatant from AlivaMab Mouse Kappa mice (detected with anti-mouse Fc and anti-human kappa)) VH: QVQLQQWGAGLLKPSETLSLTCAVYGGSFSGYYWSWIRQPPGKGLEWIGEINHSGSTNYNPSLKSRVTISVDTSENQFSLTLISVTAADTAVYYCVRLINWFDPWGQGTLVTVSS VL: DIQMTQSPSSVSASVGDRVTITCRASQDISNWLAWYQQKPGKAPKLLIFAASSLQSGVPSRFSGSGSGTDFTLTISSLQPDDFATYYCQQANSFPYTFGQGTNLGIK
display unit: ratio
SKW3 WT vs KO anti-hKappa-FITC: 2.5
